B1: LINE1-full (parent)
chain: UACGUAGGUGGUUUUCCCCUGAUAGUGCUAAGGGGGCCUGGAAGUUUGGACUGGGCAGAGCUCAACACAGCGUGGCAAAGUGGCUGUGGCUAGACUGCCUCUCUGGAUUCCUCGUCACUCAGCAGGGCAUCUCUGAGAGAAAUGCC

variants of: B1; test: self-cleavage, relative activity (ratio to wild type); higher = more cleavage; in vitro, sequencing; the parent is a self-cleaving ribozyme
Assign a class from recorded self-cleavage; defined classes: low group (below 0.2), middle group (0.2 to below 1), high group (1 or more)

• UACGUAGGUGGUUUUCCCCUGAUAGUGCUAAGGGGGCCUGGAAGUUUGGACUGGGCAGAGCUCAACACAGCGUGGCAAAGUGGCUGUUGCUAGACUGCCCCUCUGGAUUCCUCGUCACUCAGCAGGGCAUCUCUGAGAGAAAUGCC [G88U U100C] = low group
• UACGUAGGUGGUUUUCCCCUGAUAGUGCUAAGGGGGCCUGGAAGUUUGGACUGGGCAGAGCCCAACACAUCGUGGCAAAGUGGCUGUGGCUAGACUGCCUCUCUGGAUUCCUCGUCACUCAGCAGGGCAUCUCUGAGAGAAAUGCC [U62C G70U] = low group
• UACGUAGGUGGUUUUCCCCUGAUAGUGCAAAGGGUGCCUGGAAGUUUGGACUGGGCAGAGCUCAACACAGCGUGGCAAAGUGGCUGUGGCUAGACUGCCUCUCUGGAUUCCUCGUCACUCAGCAGGGCAUCUCUGAGAGAAAUGCC [U29A G35U] = high group
• UACGUAGGUGGUUUUCCCCUGAUAGUGCUAAGGGGGCCUGGAAGUUUGGACUGGGCAGGGCUCAACACACCGUGGCAAAGUGGCUGUGGCUAGACUGCCUCUCUGGAUUCCUCGUCACUCAGCAGGGCAUCUCUGAGAGAAAUGCC [A59G G70C] = low group
• UACGUAGGUGGUUUUCCCCUGAUAGUGCUAAGGGGGCCUAGAAGUCUGGACUGGGCAGAGCUCAACACAGCGUGGCAAAGUGGCUGUGGCUAGACUGCCUCUCUGGAUUCCUCGUCACUCAGCAGGGCAUCUCUGAGAGAAAUGCC [G40A U46C] = high group
• UACGUAGGUGGUUUCCCCCUGAUAGUGCUAAGGGGGCCUGGAAGUUUGGACUGGGCAGAGCUCAACACAGCGUGGCAAAGUGGCUGUGGCUAGACUGCCUCUCUGGAUUCCUCGUCACUCAGCAGAGCAUCUCUGAGAGAAAUGCC [U15C G126A] = high group
• UACGUAGGUGGUUUUCCCCUGAUAGUGCUAAGGGGGCCUGGAAGUUUGGACUGGGCAGAGCUCAACACAGCGUGGCAAAGUGGCUGUGGUUAGACUGCCUCUCUGGAUUCCUCGUCACUCAGCAGGGCAUCUCUGAGAGAAGUGCC [C90U A142G] = low group
• UACGUAGGUGGUUUUCCCCUGAUAGUGCUAAGGGGGCCUGGAAGUUUGGACUGGGCAGAGCUCAACACAGCGUGGCAAAGUGGCCGUGGCUAGACUGCCCCUCUGGAUUCCUCGUCACUCAGCAGGGCAUCUCUGAGAGAAAUGCC [U85C U100C] = middle group
• UACGUAGGUGGUUUUCCCCUGAUAGUGCUAAGGGGGCCUGGAAGUUUGGACUGGGCAGAGCUCAACACAGCGUGGCAAGGUGGCUGUGGCUAGACUGCCUCUCUGGAUUCCUCGACACUCAGCAGGGCAUCUCUGAGAGAAAUGCC [A79G U115A] = high group
• CACGUAGGUGGUUUUCCCUUGAUAGUGCUAAGGGGGCCUGGAAGUUUGGACUGGGCAGAGCUCAACACAGCGUGGCAAAGUGGCUGUGGCUAGACUGCCUCUCUGGAUUCCUCGUCACUCAGCAGGGCAUCUCUGAGAGAAAUGCC [U1C C19U] = middle group
• UACGUAGGUGGUAUUCCCCUGAUAGUGCUAAGGGGGCCUGGAAGUUUGGACUGGGCAGAGCUCAACACAGCGUGGCAAAGUGGCUGUGGCUAGACUGCCACUCUGGAUUCCUCGUCACUCAGCAGGGCAUCUCUGAGAGAAAUGCC [U13A U100A] = middle group
• UACGUAGGUGGUUUUCCCCUGAUAGUGCUAAGGGGGCCUGGAGGUUUGGACUGGGCAGAGCUCAACACAGCGUGGCAAAGUGGCUGUGGCUAGACUGCCUCUCUGGAUUCCUCGUCACUCAGCAAGGCAUCUCUGAGAGAAAUGCC [A43G G125A] = high group
• UACGUAGGUGGUUUUCCCCUGAUAGUGCUAAGGGGGCCUGGAAGUUUGGACUGGGCAGAGCUCAACACAGCGUAGCAAAGUGGCUGUGGCUAGUCUGCCUCUCUGGAUUCCUCGUCACUCAGCAGGGCAUCUCUGAGAGAAAUGCC [G74A A94U] = low group
• UACGUAGGUGGUUUUCCCCUGAUAGUGCUUAGGGGGCCUGGAAGUUCGGACUGGGCAGAGCUCAACACAGCGUGGCAAAGUGGCUGUGGCUAGACUGCCUCUCUGGAUUCCUCGUCACUCAGCAGGGCAUCUCUGAGAGAAAUGCC [A30U U47C] = high group
• UACGUAGGUGGCUUUCCCCUGAUAGUGCUAAGGGGGCCUGGGAGUUUGGACUGGGCAGAGCUCAACACAGCGUGGCAAAGUGGCUGUGGCUAGACUGCCUCUCUGGAUUCCUCGUCACUCAGCAGGGCAUCUCUGAGAGAAAUGCC [U12C A42G] = high group
• UACGUAGGUGGUUUUCCCCUGAUAGUGCUAAGGGGGCCUGGAAGUUUGGACUGGGCAGAGCUCAACACAGCGUGGCAAAGUGGCUGUGGCUAGACUGCCCCUCUGGAUUCCUCGUCACUCAGCAGGGCAUCUCUGAGAGAACUGCC [U100C A142C] = high group
• CACGUAGGUGGUUUUCCCCUGAUAGUGCUAAGGGGGCCUGGAAGUUUGGACUGGGCAGAGCACAACACAGCGUGGCAAAGUGGCUGUGGCUAGACUGCCUCUCUGGAUUCCUCGUCACUCAGCAGGGCAUCUCUGAGAGAAAUGCC [U1C U62A] = low group
• UACGUAGGUGGUUUUCCCCUGAUAGUGCUAAGGGGGCCUGGAAGUUUGGACUGGGCAGAGCUCAACACAGCGUGGCAAAGUGGCUGUGCCUAGACUGCCUCUCUGGAUUCCUCGUCACUCAGCAGGGCAUCUCUGAGAGAAAUGCC [G89C] = low group
• UACGUAGGUGGUUUUCCCCUGAUAGUGCUAAGGGGCCCUGGAAGUUUGGACUGGGCAGAGCUCAACACAGCGUGGCAAAGCGGCUGUGGCUAGACUGCCUCUCUGGAUUCCUCGUCACUCAGCAGGGCAUCUCUGAGAGAAAUGCC [G36C U81C] = middle group
